test system: KM-20L2; test: NCI tumour cell line growth inhibition, 48 h
Activity calls are given as the source filed them. Rule as the data show it: active = GI50 up to about 1.1 µM and inactive = higher.
Reported GI50 values for a set of compounds

CN1C(c2ccccc2)CC(=O)C(N)C1c1ccccc1 (stereo not given) ... 34.8 µM (inactive)

Which GI50 reading was recorded for the compound COc1cc2c(cc1OC)[C@H]1C(COC(=O)c3ccccc3)CS/C(=N/c3ccccc3)N1CC2 (stereo not given in full) ?
76 µM (inactive)

Repeat with OC(c1ccccc1)(c1ccccc1)c1ccncc1
> 100 µM (inactive)

Input COc1cc([C@@H]2c3cc4c(cc3[C@@H](NCc3ccccc3F)C3COC(=O)[C@@H]32)OCO4)cc(OC)c1O (stereo not given in full)
2.71 µM (inactive)

Do the same for CCCCCCCCCCCCCCCCc1c(C(=O)OC)[nH]c(=S)[nH]c1=O please
> 50 µM (inactive)

Entry to check: CCCN(CCC)C(=O)Cc1c2n(c3ccccc13)CCCc1ccccc1-2
14.4 µM (inactive)

Try this compound too: COc1ccccc1/C=N/C12CC3CC(CC(C3)C1)C2
> 100 µM (inactive)

Then this compound: N#Cc1cc([N+](=O)[O-])ccc1NC(=O)C(=O)Nc1n[nH]c(N)n1
> 100 µM (inactive)

Repeat with S=c1sc2c(Cl)ncnc2n1-c1ccccc1
19.1 µM (inactive)

Next: C=C[C@@]1(C)CCC2(O)C(CCC3C2(C)CCC[C@@]3(C)COC(=O)CC(=O)OC)C1 (stereo not given in full)
18.7 µM (inactive)
